system: 485368-065-R4-J2-PDC spheroids with HUVEC/MSC, viability; test: Anticancer human tumor 485368-065-R4-J2-PDC patient-derived pancreatic carcinoma cell line growth inhibition [CLK]; settings: second compound 0.1 µM; first compound 0.3 µM; active = viability on the fitted dose curve at most 10% of control; inactive = the rest;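 also: spheroids exposed to compounds for seven days; 100% = DMSO vehicle control wells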
Hello, when you answer, please use one of the following outcomes: 1 (active), -1 (inactive)

Some solved entries appear below for comparison.
[
  {
    "molecule": "CC(C)CC(NC(=O)C(Cc1ccccc1)NC(=O)c1cnccn1)B(O)O (stereo unspecified) + CN1CCN(c2cc(C(=O)Nc3cc4cc(-c5cnn(C)c5)ccc4cn3)ccn2)CC1",
    "target_under_test": "485368-065-R4-J2-PDC spheroids with HUVEC/MSC, viability",
    "assigned_class": 1
  },
  {
    "molecule": "CC(C)CC(NC(=O)C(Cc1ccccc1)NC(=O)c1cnccn1)B(O)O (stereo unspecified) + CNC(=O)c1ccc(Nc2nc(OC3CCCC3)c3c(-c4ccc5nc(C)oc5c4)c[nH]c3n2)c(OC)c1",
    "target_under_test": "485368-065-R4-J2-PDC spheroids with HUVEC/MSC, viability",
    "assigned_class": 1
  },
  {
    "molecule": "C=CC(=O)Nc1cc(Nc2nccc(-c3cn(C)c4ccccc34)n2)c(OC)cc1N(C)CCN(C)C + CNC(=O)c1ccc(Nc2nc(OC3CCCC3)c3c(-c4ccc5nc(C)oc5c4)c[nH]c3n2)c(OC)c1",
    "target_under_test": "485368-065-R4-J2-PDC spheroids with HUVEC/MSC, viability",
    "assigned_class": -1
  }
]

In: Check the results log: what was the call for C=CC(=O)Nc1cc(Nc2nccc(-c3cn(C)c4ccccc34)n2)c(OC)cc1N(C)CCN(C)C + CN1CCN(c2cc(C(=O)Nc3cc4cc(-c5cnn(C)c5)ccc4cn3)ccn2)CC1 ?
Out: -1

In: Test call, this molecule: NC(=O)C(=Cn1cnc(-c2cc(C(F)(F)F)cc(C(F)(F)F)c2)n1)c1cncnc1 + CNC(=O)c1ccc(Nc2nc(OC3CCCC3)c3c(-c4ccc5nc(C)oc5c4)c[nH]c3n2)c(OC)c1
Out: -1

In: Write down the call the test reported for this molecule. Item: NC(=O)C(=Cn1cnc(-c2cc(C(F)(F)F)cc(C(F)(F)F)c2)n1)c1cncnc1 + CN1CCN(c2cc(C(=O)Nc3cc4cc(-c5cnn(C)c5)ccc4cn3)ccn2)CC1
Out: -1
